System: Splenocyte
assay_remarks: Cytotoxicity in C57BL/6 mouse splenocytes assessed as effect on cell viability at 3 uM by FACScan flow cytometry
Assay type: cell-based

compound_structure: CC(=O)O[C@H]1C/C(C)=C/CC/C(C)=C\C(=O)C[C@@]23C(=O)O[C@@H]([C@@H]1C(C)C)[C@@H]2CC(C)=C1CCC2=CCC[C@@](C)(OC2=O)[C@@H](O)CC/C(C)=C\[C@@H]13
Activity: Non-Toxic
--
compound_structure: CC1=C2CCC3=CCC[C@@](C)(OC3=O)[C@@H](O)CC/C(C)=C/[C@@H]2[C@]23CC(=O)C[C@@H](C)CC/C=C(\C)CC(=O)[C@@H](C(C)C)[C@H](OC2=O)[C@@H]3C1
Activity: Non-Toxic
--
compound_structure: CC(=O)O[C@H]1C/C(C)=C/CC/C(C)=C\C(=O)C[C@@]23C(=O)O[C@@H]([C@@H]1C(C)C)[C@@H]2CC(C)=C1CCC2=CCC[C@@](C)(OC2=O)[C@@H](O)CC/C(C)=C/[C@@H]13
Activity: Non-Toxic
